Experiment: Dark toxicity in human MCF7 cells assessed as decrease in cell viability after 24 hrs by MTT assay
Assay type: cell-based
Conditions: read-out: EC50
measured.quantity: EC50 at 24 h (µM)
Express your answer in µM, writing the number without its unit.

Data request: For the compound shown here, COc1cccc2c1C(=O)c1c(O)c3c(c(O)c1C2=O)C[C@@](O)(C(=O)CO)C[C@@H]3O[C@H]1C[C@H](N)[C@H](O)[C@H](C)O1 , give the reported EC50 at 24 h.
Data returned: 15.3

Please turn your attention to the following entry.
Data request: Return reported EC50 at 24 h; argument: O=[N+]([O-])c1ccc(NCCCCCN2CCC(Cc3ccccc3)CC2)cc1C(F)(F)F
Data returned: 14.9
